Values were extracted from patent US20090221559A1.

I'd appreciate it if you could supply melting point values for the items below.

Answered cases to consult:
> print(dat)
                                   compound  property.label  test.value
1  COC(=O)c1ccc2c(c1)N(C(C)=O)C(c1ccc(Cl)cc1Cl)C1=C(CC(C)(C)CC1=O)N2 (stereo not drawn)   melting point    > 250 °C
2  CC(C)NC(=O)N1c2ccccc2NC2=C(C(=O)CC(C)(C)C2)C1c1ccc(Cl)cc1Cl (stereo not drawn) [compound 156]   melting point    > 260 °C

Now for a further compound.
CC(=O)N1c2ccccc2NC2=C(C(=O)CC(C)(C)C2)C1c1ccc(Cl)cc1Cl (single isomer, unassigned) [compound 38] has a reported melting point of > 250 °C

----------
Give IC50 for every item shown.
# MEASURED ON: HCV NS5B polymerase (His-tagged, C-terminal 21 amino acid deleted NS5B, HC-J4) (Hepatitis C virus genotype 1b)
# Construct: The cDNA encoding NS5B amino acid 1-570 (HC-J4, genotype 1b); His tag (His6, from pET-21b) (C); made in house; host or cells: E. coli BL21 (DE3)
# PROTOCOL DETAILS: NS5b polymerase assay (biochemical RdRp assay, 3H-GTP incorporation, SPA beads)
# Parameters: species or system HCV genotype 1b
# CONDITION PARAMETERS: NS5B Polymerase Assay IC50 (μM)

Example compounds with recorded IC50:
> print(dat)
                                   compound  property.label  test.value
1  CCn1c2ccccc2c2cc(C3Nc4ccccc4NC4=C3C(=O)CC(C)(C)C4)ccc21 (stereo not shown)            IC50   > 42.7 µM
2  O=C1CC(c2ccccc2)CC2=C1C(c1ccc(Cl)cc1)Nc1ccccc1N2 (stereo not shown)            IC50   > 42.6 µM
3  CSc1ccc(C2Nc3ccccc3NC3=C2C(=O)CC(c2ccc4c(c2)OCO4)C3)cc1 (stereo not shown)            IC50   > 42.7 µM
4  COc1ccc(C2CC(=O)C3=C(C2)Nc2ccccc2NC3c2ccc(OCc3ccccc3)cc2)cc1 (stereo not shown)            IC50   > 42.7 µM
5  COc1ccc(C2CC(=O)C3=C(C2)Nc2ccccc2NC3c2cccc(Oc3ccccc3)c2)cc1 (stereo not shown)            IC50   > 42.7 µM

Provide each entry's IC50 from the list below.
1. CC1CC(=O)C2=C(C1)Nc1ccccc1NC2c1ccc(Cl)cc1Cl (stereo not shown)
2. CC1(C)CC(=O)C2=C(C1)Nc1c(N)cccc1NC2c1ccc(Cl)cc1Cl (stereo not shown)
3. COc1ccc(C2CC(=O)C3=C(C2)Nc2ccccc2NC3c2cccc(F)c2)cc1 (stereo not shown)
4. COc1ccc(C2CC(=O)C3=C(C2)Nc2ccccc2NC3c2cc(OC)c(OC)cc2Br)cc1 (stereo not shown)
5. CCOc1cc(C2Nc3ccccc3NC3=C2C(=O)CC(c2ccc(OC)c(OC)c2)C3)cc(Br)c1O (stereo not shown)

Result block:
> 133 µM
1.72 µM
> 33.3 µM
> 42.7 µM
> 42.7 µM

----------
Kindly state IC50 for each of the entries shown.
# MEASURED ON: HCV NS5B polymerase (His-tagged, C-terminal 21 amino acid deleted NS5B, HC-J4) (Hepatitis C virus genotype 1b, UniProt O92972)
# Construct: The cDNA encoding NS5B amino acid 1-570 (HC-J4, genotype 1b); His tag (His6, from pET-21b) (C); made in house; host or cells: E. coli BL21 (DE3)
# Sequence (O92972 2417-3000, looked up, stated change not applied): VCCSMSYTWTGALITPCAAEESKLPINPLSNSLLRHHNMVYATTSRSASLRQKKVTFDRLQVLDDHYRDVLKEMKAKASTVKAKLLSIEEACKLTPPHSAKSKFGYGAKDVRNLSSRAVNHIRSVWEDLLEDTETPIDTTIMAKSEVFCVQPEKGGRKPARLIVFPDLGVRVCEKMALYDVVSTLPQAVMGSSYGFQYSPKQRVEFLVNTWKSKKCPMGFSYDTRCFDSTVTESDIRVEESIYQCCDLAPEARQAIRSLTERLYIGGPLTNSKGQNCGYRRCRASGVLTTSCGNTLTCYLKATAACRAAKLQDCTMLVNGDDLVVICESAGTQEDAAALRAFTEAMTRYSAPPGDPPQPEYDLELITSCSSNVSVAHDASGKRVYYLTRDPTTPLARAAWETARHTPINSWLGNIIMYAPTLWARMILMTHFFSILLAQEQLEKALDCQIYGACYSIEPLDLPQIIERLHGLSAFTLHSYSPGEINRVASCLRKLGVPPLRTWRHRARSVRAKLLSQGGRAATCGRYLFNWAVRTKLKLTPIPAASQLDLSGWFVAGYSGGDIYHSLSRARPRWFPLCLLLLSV
# PROTOCOL DETAILS: NS5b polymerase assay (biochemical RdRp assay, 3H-GTP incorporation, SPA beads)
# Design: species or system HCV genotype 1b
# CONDITION PARAMETERS: NS5B Polymerase Assay IC50, 200 nM enzyme, 3H-GTP incorporation, 2 h at 25° C.

Illustrative cases are given below, each with its answer.
> print(dat)
                                   molecule  test.value
1  CC1(C)CC(=O)C2=C(C1)Nc1ccccc1N(C(=O)c1ccccc1)C2c1ccccc1 (centres unmarked)   > 42.7 µM
2  CN(C)c1ccc(NC(=O)N2c3ccccc3NC3=C(C(=O)CC(C)(C)C3)C2c2ccc(Cl)cc2Cl)cc1 (centres unmarked)     29.5 µM
3  Cn1cccc1C1C2=C(CC(C)(C)CC2=O)Nc2ccccc2N1C(=O)C(F)(F)F (centres unmarked)   > 42.7 µM
4  CC1(C)CC(=O)C2=C(C1)Nc1ccccc1N(C(=O)c1ccc(Br)cc1)C2c1ccco1 (centres unmarked)   > 42.6 µM
5  COc1ccc(OC)c(C2C3=C(CC(C)(C)CC3=O)Nc3ccccc3N2C(=O)C(F)(F)F)c1Br (centres unmarked)   > 42.7 µM

For each of the items listed, what is its IC50?
1. CC1(C)CC(=O)C2=C(C1)Nc1ccccc1N(C(=O)C(F)(F)F)C2c1ccc(-c2ccc(Br)cc2)o1 (centres unmarked)
2. CC(=O)N1c2ccccc2NC2=C(C(=O)CC(C)(C)C2)C1c1cccc(O)c1 (centres unmarked)
3. CC(C)C(=O)N1c2ccccc2NC2=C(C(=O)CC(C)(C)C2)C1c1ccc(C(F)(F)F)cc1 (centres unmarked)
4. CCOc1cc(C2C3=C(CC(C)(C)CC3=O)Nc3ccccc3N2C(C)=O)ccc1O (centres unmarked)
5. CC(=O)N1c2ccccc2NC2=C(C(=O)CC(C)(C)C2)C1c1ccc(OCc2ccccc2Cl)cc1 (centres unmarked)
6. CC(C)C(=O)N1c2ccccc2NC2=C(C(=O)CC(C)(C)C2)C1c1ccc(Cl)cc1Cl (centres unmarked)

Result block:
1: > 42.7 µM; 2: > 42.7 µM; 3: > 42.7 µM; 4: > 42.7 µM; 5: 83.7 µM; 6: > 42.7 µM
